The reported numbers originate from ChEMBL document CHEMBL6134890.

- Tested on: Klebsiella pneumoniae
- experiment: Antimicrobial activity against multi-drug resistant Klebsiella pneumoniae assessed as reduction in bacterial growth by broth dilution method
- Type: functional
Peptide text beside a SMILES is read from it.

# molecule, unit.abbrev, comparative.sign, MIC
measured = [
    ("NCCCC[C@H](NC(=O)[C@H](Cc1c[nH]c2ccccc12)NC(=O)[C@H](CCCCN)NC(=O)[C@@H]1CCCN1C(=O)[C@H](Cc1c[nH]c2ccccc12)NC(=O)[C@H](Cc1c[nH]c2ccccc12)NC(=O)[C@H](Cc1c[nH]c2ccccc12)NC(=O)[C@@H]1CCCN1C(=O)[C@H](CCCCN)NC(=O)[C@H](Cc1c[nH]c2ccccc12)NC(=O)[C@H](CCCCN)NC(=O)[C@@H](N)Cc1c[nH]c2ccccc12)C(=O)N[C@@H](Cc1c[nH]c2ccccc12)C(N)=O (H-WKWKPWWWPKWKW-NH2)", "µM", "=", 8),
    ("CC(C)C[C@H](NC(=O)[C@H](CCCCN)NC(=O)[C@H](CC(C)C)NC(=O)[C@H](CCCCN)NC(=O)[C@H](Cc1ccccc1)NC(=O)[C@@H]1CCCN1C(=O)[C@H](Cc1c[nH]c2ccccc12)NC(=O)[C@H](Cc1c[nH]c2ccccc12)NC(=O)[C@H](Cc1c[nH]c2ccccc12)NC(=O)[C@@H]1CCCN1C(=O)[C@H](Cc1ccccc1)NC(=O)[C@H](CCCCN)NC(=O)[C@H](CC(C)C)NC(=O)[C@H](CCCCN)NC(=O)[C@H](CC(C)C)NC(=O)[C@@H](N)CCCCN)C(=O)N[C@@H](CCCCN)C(N)=O (H-KLKLKFPWWWPFKLKLK-NH2)", "µM", "=", 8),
    ("NCCCC[C@H](NC(=O)[C@H](Cc1c[nH]c2ccccc12)NC(=O)[C@H](CCCCN)NC(=O)[C@H](Cc1c[nH]c2ccccc12)NC(=O)[C@H](Cc1ccccc1)NC(=O)[C@@H]1CCCN1C(=O)[C@H](Cc1c[nH]c2ccccc12)NC(=O)[C@H](Cc1c[nH]c2ccccc12)NC(=O)[C@H](Cc1c[nH]c2ccccc12)NC(=O)[C@@H]1CCCN1C(=O)[C@H](Cc1ccccc1)NC(=O)[C@H](Cc1c[nH]c2ccccc12)NC(=O)[C@H](CCCCN)NC(=O)[C@H](Cc1c[nH]c2ccccc12)NC(=O)[C@@H](N)CCCCN)C(N)=O (H-KWKWFPWWWPFWKWK-NH2)", "µM", "=", 256),
    ("C[C@H]1COc2c(N3CCN(C)CC3)c(F)cc3c(=O)c(C(=O)O)cn1c23 [LEVOFLOXACIN ANHYDROUS]", "µM", "=", 64),
    ("CN[C@H](CC(C)C)C(=O)N[C@H]1C(=O)N[C@@H](CC(N)=O)C(=O)N[C@H]2C(=O)N[C@H]3C(=O)N[C@H](C(=O)N[C@H](C(=O)O)c4cc(O)cc(O)c4-c4cc3ccc4O)[C@H](O)c3ccc(c(Cl)c3)Oc3cc2cc(c3O[C@@H]2O[C@H](CO)[C@@H](O)[C@H](O)[C@H]2O[C@H]2C[C@](C)(N)[C@H](O)[C@H](C)O2)Oc2ccc(cc2Cl)[C@H]1O", "µM", ">", 256),
]

----------
- System: HEK-293T
- experiment: Cytotoxicity against HEK293T cells at 2 to 256 uM measured after 24 hrs by CCK-8 method
- Assay type: toxicity, cell-based
- condition.description: human, dose 2-256 µM
Peptide text beside a SMILES is read from it.

# compound, Activity
measured = [
    ("CC[C@H](C)[C@H](NC(=O)[C@H](CCCCN)NC(=O)[C@@H](NC(=O)[C@H](CCCCN)NC(=O)[C@@H]1CCCN1C(=O)[C@H](Cc1c[nH]c2ccccc12)NC(=O)[C@H](Cc1c[nH]c2ccccc12)NC(=O)[C@H](Cc1c[nH]c2ccccc12)NC(=O)[C@@H]1CCCN1C(=O)[C@H](CCCCN)NC(=O)[C@@H](NC(=O)[C@H](CCCCN)NC(=O)[C@@H](NC(=O)[C@@H](N)CCCCN)[C@@H](C)CC)[C@@H](C)CC)[C@@H](C)CC)C(=O)N[C@@H](CCCCN)C(N)=O (H-KIKIKPWWWPKIKIK-NH2)", "Toxic"),
]

----------
Listed below: MIC values for each entry.
- System: Klebsiella pneumoniae
- experiment: Antimicrobial activity against multi-drug resistant Klebsiella pneumoniae assessed as reduction in bacterial growth by broth dilution method
- Type: functional
Peptide text beside a SMILES is read from it.

# compound, unit.abbrev, MIC
records = [
    ("CC(C)C[C@H](NC(=O)[C@H](CCCCN)NC(=O)[C@H](CC(C)C)NC(=O)[C@H](CCCCN)NC(=O)[C@@H]1CCCN1C(=O)[C@H](Cc1c[nH]c2ccccc12)NC(=O)[C@H](Cc1c[nH]c2ccccc12)NC(=O)[C@H](Cc1c[nH]c2ccccc12)NC(=O)[C@@H]1CCCN1C(=O)[C@H](CCCCN)NC(=O)[C@H](CC(C)C)NC(=O)[C@H](CCCCN)NC(=O)[C@H](CC(C)C)NC(=O)[C@@H](N)CCCCN)C(=O)N[C@@H](CCCCN)C(N)=O (H-KLKLKPWWWPKLKLK-NH2)", "µM", 4),
    ("CC[C@H](C)[C@H](N)C(=O)N[C@@H](CCCCN)C(=O)N[C@H](C(=O)N[C@@H](CCCCN)C(=O)N1CCC[C@H]1C(=O)N[C@@H](Cc1c[nH]c2ccccc12)C(=O)N[C@@H](Cc1c[nH]c2ccccc12)C(=O)N[C@@H](Cc1c[nH]c2ccccc12)C(=O)N1CCC[C@H]1C(=O)N[C@@H](CCCCN)C(=O)N[C@H](C(=O)N[C@@H](CCCCN)C(=O)N[C@H](C(N)=O)[C@@H](C)CC)[C@@H](C)CC)[C@@H](C)CC (H-IKIKPWWWPKIKI-NH2)", "µM", 64),
]

----------
Listed below: MIC values for each entry.
- Tested on: Escherichia coli
- experiment: Antimicrobial activity against Escherichia coli ATCC 25922 assessed as reduction in bacterial growth by broth dilution method
- Assay type: functional
Peptide text beside a SMILES is read from it.

# compound, experimental.system, MIC
rows = [
    ("NCCCC[C@H](NC(=O)[C@H](Cc1c[nH]c2ccccc12)NC(=O)[C@H](CCCCN)NC(=O)[C@H](Cc1c[nH]c2ccccc12)NC(=O)[C@H](CCCCN)NC(=O)[C@@H]1CCCN1C(=O)[C@H](Cc1c[nH]c2ccccc12)NC(=O)[C@H](Cc1c[nH]c2ccccc12)NC(=O)[C@H](Cc1c[nH]c2ccccc12)NC(=O)[C@@H]1CCCN1C(=O)[C@H](CCCCN)NC(=O)[C@H](Cc1c[nH]c2ccccc12)NC(=O)[C@H](CCCCN)NC(=O)[C@H](Cc1c[nH]c2ccccc12)NC(=O)[C@@H](N)CCCCN)C(N)=O (H-KWKWKPWWWPKWKWK-NH2)", "Escherichia coli", "4 µM"),
    ("CC[C@H](C)[C@H](NC(=O)[C@H](CCCCN)NC(=O)[C@@H](NC(=O)[C@@H]1CCCN1C(=O)[C@H](Cc1c[nH]c2ccccc12)NC(=O)[C@H](Cc1c[nH]c2ccccc12)NC(=O)[C@H](Cc1c[nH]c2ccccc12)NC(=O)[C@@H]1CCCN1C(=O)[C@@H](NC(=O)[C@H](CCCCN)NC(=O)[C@@H](NC(=O)[C@@H](N)CCCCN)[C@@H](C)CC)[C@@H](C)CC)[C@@H](C)CC)C(=O)N[C@@H](CCCCN)C(N)=O (H-KIKIPWWWPIKIK-NH2)", "Escherichia coli", "8 µM"),
]

----------
- Tested on: Klebsiella pneumoniae
- experiment: Antimicrobial activity against multi-drug resistant Klebsiella pneumoniae assessed as reduction in bacterial growth by broth dilution method
- Format: functional
Peptide text beside a SMILES is read from it.

# compound, MIC [µM]
measured = [
    ("NCCCC[C@H](NC(=O)[C@H](Cc1c[nH]c2ccccc12)NC(=O)[C@H](CCCCN)NC(=O)[C@H](Cc1c[nH]c2ccccc12)NC(=O)[C@@H]1CCCN1C(=O)[C@H](Cc1c[nH]c2ccccc12)NC(=O)[C@H](Cc1c[nH]c2ccccc12)NC(=O)[C@H](Cc1c[nH]c2ccccc12)NC(=O)[C@@H]1CCCN1C(=O)[C@H](Cc1c[nH]c2ccccc12)NC(=O)[C@H](CCCCN)NC(=O)[C@H](Cc1c[nH]c2ccccc12)NC(=O)[C@@H](N)CCCCN)C(N)=O (H-KWKWPWWWPWKWK-NH2)", 16),
]

----------
Listed below: HC10 values for each entry.
- experiment: Hemolytic activity in human Red blood cell assessed as hemolysis incubated for 1 hrs by microplate reader based analysis
- Assay type: toxicity
- condition.description: erythrocyte
Peptide text beside a SMILES is read from it.

# compound, unit.abbrev, comparative.sign, HC10
measured = [
    ("NCCCC[C@H](NC(=O)[C@H](Cc1c[nH]c2ccccc12)NC(=O)[C@H](CCCCN)NC(=O)[C@H](Cc1c[nH]c2ccccc12)NC(=O)[C@H](Cc1ccccc1)NC(=O)[C@@H]1CCCN1C(=O)[C@H](Cc1c[nH]c2ccccc12)NC(=O)[C@H](Cc1c[nH]c2ccccc12)NC(=O)[C@H](Cc1c[nH]c2ccccc12)NC(=O)[C@@H]1CCCN1C(=O)[C@H](Cc1ccccc1)NC(=O)[C@H](Cc1c[nH]c2ccccc12)NC(=O)[C@H](CCCCN)NC(=O)[C@H](Cc1c[nH]c2ccccc12)NC(=O)[C@@H](N)CCCCN)C(N)=O (H-KWKWFPWWWPFWKWK-NH2)", "µM", "=", 7.46),
    ("NCCCC[C@H](NC(=O)[C@H](Cc1c[nH]c2ccccc12)NC(=O)[C@H](CCCCN)NC(=O)[C@H](Cc1ccccc1)NC(=O)[C@@H]1CCCN1C(=O)[C@H](Cc1c[nH]c2ccccc12)NC(=O)[C@H](Cc1c[nH]c2ccccc12)NC(=O)[C@H](Cc1c[nH]c2ccccc12)NC(=O)[C@@H]1CCCN1C(=O)[C@H](Cc1ccccc1)NC(=O)[C@H](CCCCN)NC(=O)[C@H](Cc1c[nH]c2ccccc12)NC(=O)[C@H](CCCCN)NC(=O)[C@@H](N)Cc1c[nH]c2ccccc12)C(=O)N[C@@H](Cc1c[nH]c2ccccc12)C(N)=O (H-WKWKFPWWWPFKWKW-NH2)", "µM", "=", 6.82),
    ("CC(C)[C@H](NC(=O)[C@H](CCCCN)NC(=O)[C@@H](NC(=O)[C@H](CCCCN)NC(=O)[C@@H]1CCCN1C(=O)[C@H](Cc1c[nH]c2ccccc12)NC(=O)[C@H](Cc1c[nH]c2ccccc12)NC(=O)[C@H](Cc1c[nH]c2ccccc12)NC(=O)[C@@H]1CCCN1C(=O)[C@H](CCCCN)NC(=O)[C@@H](NC(=O)[C@H](CCCCN)NC(=O)[C@@H](NC(=O)[C@@H](N)CCCCN)C(C)C)C(C)C)C(C)C)C(=O)N[C@@H](CCCCN)C(N)=O (H-KVKVKPWWWPKVKVK-NH2)", "µM", ">", 256),
    ("NCCCC[C@H](NC(=O)[C@H](Cc1ccccc1)NC(=O)[C@H](CCCCN)NC(=O)[C@H](Cc1ccccc1)NC(=O)[C@H](CCCCN)NC(=O)[C@@H]1CCCN1C(=O)[C@H](Cc1c[nH]c2ccccc12)NC(=O)[C@H](Cc1c[nH]c2ccccc12)NC(=O)[C@H](Cc1c[nH]c2ccccc12)NC(=O)[C@@H]1CCCN1C(=O)[C@H](CCCCN)NC(=O)[C@H](Cc1ccccc1)NC(=O)[C@H](CCCCN)NC(=O)[C@H](Cc1ccccc1)NC(=O)[C@@H](N)CCCCN)C(N)=O (H-KFKFKPWWWPKFKFK-NH2)", "µM", ">", 256),
    ("CC[C@H](C)[C@H](NC(=O)[C@H](CCCCN)NC(=O)[C@@H](NC(=O)[C@@H]1CCCN1C(=O)[C@H](Cc1c[nH]c2ccccc12)NC(=O)[C@H](Cc1c[nH]c2ccccc12)NC(=O)[C@H](Cc1c[nH]c2ccccc12)NC(=O)[C@@H]1CCCN1C(=O)[C@@H](NC(=O)[C@H](CCCCN)NC(=O)[C@@H](NC(=O)[C@@H](N)CCCCN)[C@@H](C)CC)[C@@H](C)CC)[C@@H](C)CC)C(=O)N[C@@H](CCCCN)C(N)=O (H-KIKIPWWWPIKIK-NH2)", "µM", ">", 256),
    ("CC[C@H](C)[C@H](N)C(=O)N[C@@H](CCCCN)C(=O)N[C@H](C(=O)N[C@@H](CCCCN)C(=O)N[C@@H](Cc1ccccc1)C(=O)N1CCC[C@H]1C(=O)N[C@@H](Cc1c[nH]c2ccccc12)C(=O)N[C@@H](Cc1c[nH]c2ccccc12)C(=O)N[C@@H](Cc1c[nH]c2ccccc12)C(=O)N1CCC[C@H]1C(=O)N[C@@H](Cc1ccccc1)C(=O)N[C@@H](CCCCN)C(=O)N[C@H](C(=O)N[C@@H](CCCCN)C(=O)N[C@H](C(N)=O)[C@@H](C)CC)[C@@H](C)CC)[C@@H](C)CC (H-IKIKFPWWWPFKIKI-NH2)", "µM", "=", 9.48),
    ("CC(C)C[C@H](NC(=O)[C@H](Cc1ccccc1)NC(=O)[C@@H]1CCCN1C(=O)[C@H](Cc1c[nH]c2ccccc12)NC(=O)[C@H](Cc1c[nH]c2ccccc12)NC(=O)[C@H](Cc1c[nH]c2ccccc12)NC(=O)[C@@H]1CCCN1C(=O)[C@H](Cc1ccccc1)NC(=O)[C@H](CCCNC(=N)N)NC(=O)[C@H](CCCNC(=N)N)NC(=O)[C@@H](N)C(C)C)C(=O)N[C@@H](CCCNC(=N)N)C(=O)N[C@@H](CCCNC(=N)N)C(=O)O", "µM", "=", 33.13),
    ("NCCCC[C@H](NC(=O)[C@H](Cc1c[nH]c2ccccc12)NC(=O)[C@H](CCCCN)NC(=O)[C@H](Cc1c[nH]c2ccccc12)NC(=O)[C@H](CCCCN)NC(=O)[C@@H]1CCCN1C(=O)[C@H](Cc1c[nH]c2ccccc12)NC(=O)[C@H](Cc1c[nH]c2ccccc12)NC(=O)[C@H](Cc1c[nH]c2ccccc12)NC(=O)[C@@H]1CCCN1C(=O)[C@H](CCCCN)NC(=O)[C@H](Cc1c[nH]c2ccccc12)NC(=O)[C@H](CCCCN)NC(=O)[C@H](Cc1c[nH]c2ccccc12)NC(=O)[C@@H](N)CCCCN)C(N)=O (H-KWKWKPWWWPKWKWK-NH2)", "µM", "=", 64.03),
]
